# Ki ratio MOR/DOR/KOR per entry
- TEST_SYSTEM: MOR (Rattus norvegicus)
- Construct: Membranes were prepared from Sprague-Dawley rat brains or guinea-pig brains according to the described procedures; tissue Labortierkunde und Laborgenetik, Medizinische Universität Wien; host or cells: Sprague-Dawley rat brain without cerebella
- Sequence (P33535 whole entry): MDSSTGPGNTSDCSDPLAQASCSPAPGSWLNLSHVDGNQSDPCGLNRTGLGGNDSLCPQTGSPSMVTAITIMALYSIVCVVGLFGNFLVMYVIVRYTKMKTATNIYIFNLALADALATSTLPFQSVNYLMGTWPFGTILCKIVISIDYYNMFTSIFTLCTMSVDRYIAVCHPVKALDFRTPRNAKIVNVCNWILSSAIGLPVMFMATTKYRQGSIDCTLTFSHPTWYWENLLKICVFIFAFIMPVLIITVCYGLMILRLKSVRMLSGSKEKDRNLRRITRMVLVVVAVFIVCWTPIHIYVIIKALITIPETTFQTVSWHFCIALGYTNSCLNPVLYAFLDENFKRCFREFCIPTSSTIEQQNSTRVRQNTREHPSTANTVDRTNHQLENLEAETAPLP
- PROTOCOL: competition radioligand binding, rat brain membranes, [3H]DAMGO
- EXPERIMENTAL_PARAMETERS: from Ki in rat (MOR, DOR) and guinea-pig (KOR) brain membranes

A selection of reference data follows.
CC[C@H](N[C@H]1CC[C@@]2(OC)[C@H]3Cc4ccc(O)c5c4[C@@]2(CCN3C)[C@H]1O5)C(=O)O [Compound 19a] | 1/49/189
CO[C@@]12CC[C@@H](NCCC(=O)O)[C@@H]3Oc4c(O)ccc5c4[C@@]31CCN(C)[C@@H]2C5 [Compound 20b] | 1/13/69
CO[C@@]12CC[C@H](NCCCC(=O)O)[C@@H]3Oc4c(O)ccc5c4[C@@]31CCN(C)[C@@H]2C5 [Compound 21a] | 1/16/59
CO[C@@]12CC[C@H](N[C@H](C(=O)O)C3CCCCC3)[C@@H]3Oc4c(O)ccc5c4[C@@]31CCN(C)[C@@H]2C5 [Compound 18a] | 1/12/144
CO[C@@]12CC[C@H](NCCC(=O)O)[C@@H]3Oc4c(O)ccc5c4[C@@]31CCN(C)[C@@H]2C5 [Compound 20a] | 1/46/140

Item CO[C@@]12CC[C@H](N[C@@H](CC(=O)O)C(=O)O)[C@@H]3Oc4c(O)ccc5c4[C@@]31CCN(C)[C@@H]2C5 [Compound 13a] has what recorded Ki ratio MOR/DOR/KOR?
1/11/37

----------
- TEST_SYSTEM: MOR (Homo sapiens)
- Construct: host or cells: CHO (CHO-hMOR)
- PROTOCOL: [35S]GTPγS binding assay, CHO-hMOR membranes
- Format: biochemical
- EXPERIMENTAL_PARAMETERS: [35S]GTPγS, CHO human MOR membranes; read-out: MOR EC50
Simple rule here: EC50 less than 3 nM is fulfilled, otherwise not fulfilled.

CO[C@@]12CC[C@H](NCC(=O)O)[C@@H]3Oc4c(O)ccc5c4[C@@]31CCN(C)[C@@H]2C5 | fulfilled
CO[C@@]12CC[C@@H](N[C@H](C(=O)O)C(C)C)[C@@H]3Oc4c(O)ccc5c4[C@@]31CCN(C)[C@@H]2C5 | not fulfilled
CO[C@@]12CC[C@H](NCCCC(=O)O)[C@@H]3Oc4c(O)ccc5c4[C@@]31CCN(C)[C@@H]2C5 [Compound 21a] | fulfilled
CO[C@@]12CC[C@H](N[C@@H](C(=O)O)C(C)C)[C@@H]3Oc4c(O)ccc5c4[C@@]31CCN(C)[C@@H]2C5 [Compound 16a] | not fulfilled

I'd appreciate it if you could check whether CO[C@@]12CC[C@H](N[C@H](Cc3ccccc3)C(=O)O)[C@@H]3Oc4c(O)ccc5c4[C@@]31CCN(C)[C@@H]2C5 [Compound 17a] has EC50 smaller than 3 nM.
fulfilled

Now the same for CO[C@@]12CC[C@@H](N[C@@H](C(=O)O)C(C)C)[C@@H]3Oc4c(O)ccc5c4[C@@]31CCN(C)[C@@H]2C5 [Compound 16b]
fulfilled

One more compound: CO[C@@]12CC[C@H](NCCC(=O)O)[C@@H]3Oc4c(O)ccc5c4[C@@]31CCN(C)[C@@H]2C5 [Compound 20a]
not fulfilled

----------
Reported Emax is given for each of the following molecules.
- TEST_SYSTEM: DOR (Homo sapiens)
- Construct: host or cells: CHO (CHO-hDOR)
- Sequence (P41143 whole entry): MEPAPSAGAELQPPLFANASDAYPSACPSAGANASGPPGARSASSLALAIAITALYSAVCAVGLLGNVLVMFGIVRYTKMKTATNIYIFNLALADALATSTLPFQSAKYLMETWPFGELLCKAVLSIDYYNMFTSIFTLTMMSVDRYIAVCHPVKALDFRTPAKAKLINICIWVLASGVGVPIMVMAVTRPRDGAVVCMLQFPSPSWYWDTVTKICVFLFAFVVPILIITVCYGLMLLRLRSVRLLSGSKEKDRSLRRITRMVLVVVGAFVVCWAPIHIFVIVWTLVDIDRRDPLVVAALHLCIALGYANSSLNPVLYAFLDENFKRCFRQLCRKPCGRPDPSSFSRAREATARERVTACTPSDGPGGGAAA
- PROTOCOL: [35S]GTPγS binding assay, CHO-hDOR membranes
- Type: biochemical
- EXPERIMENTAL_PARAMETERS: relative to reference full agonist DPDPE; read-out: DOR % stim.
Express your answer as a number followed by its unit.

CO[C@@]12CC[C@@H](N[C@@H](C(=O)O)C(C)C)[C@@H]3Oc4c(O)ccc5c4[C@@]31CCN(C)[C@@H]2C5 [Compound 16b] | 99%
CO[C@@]12CC[C@@H](N[C@@H](Cc3ccc(O)cc3)C(=O)O)[C@@H]3Oc4c(O)ccc5c4[C@@]31CCN(C)[C@@H]2C5.Cl.Cl [Compound 9b] | 95%
CC[C@H](N[C@@H]1CC[C@@]2(OC)[C@H]3Cc4ccc(O)c5c4[C@@]2(CCN3C)[C@H]1O5)C(=O)O [Compound 19b] | 100%
CO[C@@]12CC[C@@H](N[C@@H](CC(=O)O)C(=O)O)[C@@H]3Oc4c(O)ccc5c4[C@@]31CCN(C)[C@@H]2C5 [Compound 13b] | 101%
CO[C@@]12CC[C@@H](N[C@@H](CCC(N)=O)C(=O)O)[C@@H]3Oc4c(O)ccc5c4[C@@]31CCN(C)[C@@H]2C5.Cl.Cl [Compound 12b] | 103%

Note: attention shifts to another entry.
Param item = CO[C@@]12CC[C@@H](N[C@@H](CCCCN)C(=O)O)[C@@H]3Oc4c(O)ccc5c4[C@@]31CCN(C)[C@@H]2C5 [Compound 8b] ; retrieve measured Emax.
93%

----------
- TEST_SYSTEM: KOR (Homo sapiens)
- Construct: host or cells: CHO (CHO-hKOR)
- Sequence (P41145 whole entry): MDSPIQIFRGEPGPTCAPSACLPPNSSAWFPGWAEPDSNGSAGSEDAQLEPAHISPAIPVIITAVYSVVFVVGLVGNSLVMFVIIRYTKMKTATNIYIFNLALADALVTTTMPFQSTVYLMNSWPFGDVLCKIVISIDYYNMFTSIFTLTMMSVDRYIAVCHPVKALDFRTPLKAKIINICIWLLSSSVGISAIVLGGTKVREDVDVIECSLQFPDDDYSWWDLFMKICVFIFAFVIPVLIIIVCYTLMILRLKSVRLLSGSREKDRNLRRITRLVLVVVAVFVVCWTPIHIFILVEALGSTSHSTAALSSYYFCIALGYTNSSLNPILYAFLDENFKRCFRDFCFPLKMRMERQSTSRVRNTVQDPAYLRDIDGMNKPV
- PROTOCOL: [35S]GTPγS binding assay, CHO-hKOR membranes
- Type: biochemical
- EXPERIMENTAL_PARAMETERS: [35S]GTPγS, CHO human KOR membranes; read-out: KOR EC50
Binary label based on EC50 with cut-off 1000 nM: below gives class 1, not below gives class 0.

Known results for compounds:
CO[C@@]12CC[C@@H](NCCCC(=O)O)[C@@H]3Oc4c(O)ccc5c4[C@@]31CCN(C)[C@@H]2C5 [Compound 21b] | class 0
CO[C@@]12CC[C@H](N[C@@H](Cc3ccc(O)cc3)C(=O)O)[C@@H]3Oc4c(O)ccc5c4[C@@]31CCN(C)[C@@H]2C5.Cl.Cl | class 1
CO[C@@]12CC[C@@H](N[C@H](Cc3ccccc3)C(=O)O)[C@@H]3Oc4c(O)ccc5c4[C@@]31CCN(C)[C@@H]2C5 [Compound 17b] | class 1
CO[C@@]12CC[C@@H](N[C@@H](CC(N)=O)C(=O)O)[C@@H]3Oc4c(O)ccc5c4[C@@]31CCN(C)[C@@H]2C5 [Compound 11b] | class 1
CO[C@@]12CC[C@@H](NCC(=O)NCC(=O)O)[C@@H]3Oc4c(O)ccc5c4[C@@]31CCN(C)[C@@H]2C5 [Compound 23a] | class 1

Below: the item to evaluate.
Consider CO[C@@]12CC[C@@H](N[C@@H](CCC(N)=O)C(=O)O)[C@@H]3Oc4c(O)ccc5c4[C@@]31CCN(C)[C@@H]2C5.Cl.Cl [Compound 12b] . Does its EC50 lie strictly below 1000 nM?
class 0

----------
- TEST_SYSTEM: MOR (Homo sapiens, UniProt P35372)
- Construct: host or cells: CHO (CHO-hMOR)
- Sequence (P35372 whole entry): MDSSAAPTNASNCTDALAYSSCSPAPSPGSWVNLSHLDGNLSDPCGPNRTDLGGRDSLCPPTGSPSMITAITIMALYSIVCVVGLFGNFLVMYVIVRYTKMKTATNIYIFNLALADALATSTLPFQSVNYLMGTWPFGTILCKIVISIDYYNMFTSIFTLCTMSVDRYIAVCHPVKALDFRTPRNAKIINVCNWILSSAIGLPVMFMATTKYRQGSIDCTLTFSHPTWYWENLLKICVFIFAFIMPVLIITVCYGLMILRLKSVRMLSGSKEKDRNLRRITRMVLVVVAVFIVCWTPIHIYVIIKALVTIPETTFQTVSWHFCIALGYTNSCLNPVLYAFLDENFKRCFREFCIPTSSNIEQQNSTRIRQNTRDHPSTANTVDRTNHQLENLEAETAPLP
- PROTOCOL: competition radioligand binding, CHO cell membranes expressing human MOR, [3H]DAMGO
# Ki per record follows
Number in nM, nothing else.

Example cases with answers are listed next.
CC[C@H](N[C@H]1CC[C@@]2(OC)[C@H]3Cc4ccc(O)c5c4[C@@]2(CCN3C)[C@H]1O5)C(=O)O [Compound 19a] | 0.95
CO[C@@]12CC[C@H](N[C@@H](Cc3ccccc3)C(=O)O)[C@@H]3Oc4c(O)ccc5c4[C@@]31CCN(C)[C@@H]2C5 [Compound 4a] | 0.81
CO[C@@]12CC[C@@H](NCC(=O)O)[C@@H]3Oc4c(O)ccc5c4[C@@]31CCN(C)[C@@H]2C5 [Compound 2b] | 0.9

Please give the measured Ki for this molecule: CO[C@@]12CCC(N[C@@H](CCC(=O)O)C(=O)O)[C@@H]3Oc4c(O)ccc5c4[C@@]31CCN(C)[C@@H]2C5 (stereo in doubt) [Compound 14a]
3.29

----------
- System: peripheral opioid receptors
- PROTOCOL: antagonism by naloxone methiodide in the acetic acid-induced writhing assay
- Type: in vivo, mouse
- EXPERIMENTAL_PARAMETERS: sc co-administration with naloxone methiodide 1 mg/kg; agonist 50 or 200 μg/kg sc; 30 min
ENDPOINT_LABEL: effect of naloxone methiodide on antinociceptive effect

Record excerpt, results attached:
CO[C@@]12CC[C@@H](N[C@@H](CCCCN)C(=O)O)[C@@H]3Oc4c(O)ccc5c4[C@@]31CCN(C)[C@@H]2C5 | antagonized
CO[C@@]12CC[C@@H](N[C@H](C(=O)O)C3CCCCC3)[C@@H]3Oc4c(O)ccc5c4[C@@]31CCN(C)[C@@H]2C5 [Compound 18b] | antagonized
CO[C@@]12CC[C@H](N[C@H](C(=O)N[C@@H](Cc3ccc(O)cc3)C(=O)O)C(C)C)[C@@H]3Oc4c(O)ccc5c4[C@@]31CCN(C)[C@@H]2C5 [Compound 22a] | reversed
CO[C@@]12CC[C@H](N[C@@H](CCCCN)C(=O)O)[C@@H]3Oc4c(O)ccc5c4[C@@]31CCN(C)[C@@H]2C5 | reversed
CO[C@@]12CC[C@H](N[C@H](C(=O)O)C3CCCCC3)[C@@H]3Oc4c(O)ccc5c4[C@@]31CCN(C)[C@@H]2C5 [Compound 18a] | reversed
CO[C@@]12CC[C@@H](NCC(=O)NCC(=O)O)[C@@H]3Oc4c(O)ccc5c4[C@@]31CCN(C)[C@@H]2C5 [Compound 23a] | antagonized
CC[C@H](N[C@H]1CC[C@@]2(OC)[C@H]3Cc4ccc(O)c5c4[C@@]2(CCN3C)[C@H]1O5)C(=O)O [Compound 19a] | reversed

Now, please, on to the next compound.
If you can, please state the reported effect of naloxone methiodide on antinociceptive effect value of CC[C@H](N[C@@H]1CC[C@@]2(OC)[C@H]3Cc4ccc(O)c5c4[C@@]2(CCN3C)[C@H]1O5)C(=O)O [Compound 19b] .
antagonized
